Test system: Nucleic Acid
Assay info: Binding affinity to hairpin fluorescent labeled oligonucleotide F10T duplex DNA assessed as change in melting temperature at 1 uM after 30 secs by FRET assay
Recorded ΔTm by entry
State just the number; it will be interpreted in °C.

CCN(CC)CCCNCC(=O)Nc1cc(Cl)ccc1-c1nc(NCCCN(C)C)c2ccccc2n1; 0.2
CN(C)CCCNc1nc(-c2ccc(Cl)cc2NC(=O)CNCCN2CCCC2)nc2ccccc12; 0.3

q: Give recorded ΔTm. CN(C)CCCNc1nc(-c2ccc(Cl)cc2NC(=O)CNCCN2CCCCC2)nc2ccccc12
a: 0.2

q: State, in one line, measured ΔTm of CN(C)CCCNc1nc(-c2ccc(Cl)cc2NC(=O)CCN2CCCCC2)nc2ccccc12
a: 0.2

###

System: Nucleic Acid
Assay info: Binding affinity to hairpin fluorescent labeled oligonucleotide F10T duplex DNA assessed as change in melting temperature at 1 uM after 30 secs by FRET assay
Quick rule for you: ΔTm at 0.2 °C or higher means class 1, lower means class 0.

Would you please look over these solved cases?
CN(C)CCCNc1nc(-c2ccc(Cl)cc2NC(=O)CN2CCOCC2)nc2ccccc12; class 0
CN(C)CCCNc1nc(-c2ccc(Cl)cc2NC(=O)CN2CCN(C)CC2)nc2ccccc12; class 1
CN(C)CCCNc1nc(-c2ccc(Cl)cc2NC(=O)CCCN2CCN(C)CC2)nc2ccccc12; class 1
CN(C)CCCNc1nc(-c2ccc(Cl)cc2NC(=O)CN2CCCC2)nc2ccccc12; class 0
CN(C)CCCNCC(=O)Nc1cc(Cl)ccc1-c1nc(NCCCN(C)C)c2ccccc2n1; class 1
CN(C)CCCNc1nc(-c2ccc(Cl)cc2N)nc2ccccc12; class 1

Moving on to the next molecule.
q: In plain terms: is recorded ΔTm at least 0.2 °C for CN(C)CCCNc1nc(-c2ccc(Cl)cc2NC(=O)CCN2CCOCC2)nc2ccccc12 ?
a: class 0

###

System: Nucleic Acid
Assay info: Binding affinity to human fluorescent labeled oligonucleotide F21T telomeric G-quadruplex DNA assessed as change in melting temperature at 1 uM after 30 secs by FRET assay
Type: nucleic-acid assay
Please respond with Condition met when measured ΔTm is strictly beneath 10 °C, and with Condition not met in all other cases.

CN(C)CCCNc1nc(-c2ccc(Cl)cc2NC(=O)CCCN2CCN(C)CC2)nc2ccccc12; Condition not met
CN(C)CCCNc1nc(-c2ccc(Cl)cc2NC(=O)CN2CCOCC2)nc2ccccc12; Condition met
CN(C)CCCNCC(=O)Nc1cc(Cl)ccc1-c1nc(NCCCN(C)C)c2ccccc2n1; Condition not met
CN(C)CCCNc1nc(-c2ccc(Cl)cc2NC(=O)CCN2CCN(C)CC2)nc2ccccc12; Condition not met
CN(C)CCCNc1nc(-c2ccc(Cl)cc2NC(=O)CN2CCCCC2)nc2ccccc12; Condition met
CN(C)CCCNc1nc(-c2ccc(Cl)cc2N)nc2ccccc12; Condition met
CN(C)CCCNc1nc(-c2ccc(Cl)cc2NC(=O)CCN2CCCC2)nc2ccccc12; Condition not met
CN(C)CCCNc1nc(-c2ccc(Cl)cc2NC(=O)CCN2CCOCC2)nc2ccccc12; Condition met

q: Strictly below 10 °C in ΔTm? CN(C)CCCNc1nc(-c2ccc(Cl)cc2NC(=O)CN2CCCC2)nc2ccccc12
a: Condition met

q: Consider the compound CN(C)CCCNc1nc(-c2ccc(Cl)cc2NC(=O)CCN2CCCCC2)nc2ccccc12 . Is its ΔTm strictly less than 10 °C?
a: Condition not met

q: Given CN(C)CCCNc1nc(-c2ccc(Cl)cc2NC(=O)CNCCN2CCCC2)nc2ccccc12 , is recorded ΔTm strictly lower than 10 °C?
a: Condition not met

q: Problem: For the compound CCN(CC)CCC(=O)Nc1cc(Cl)ccc1-c1nc(NCCCN(C)C)c2ccccc2n1 , is ΔTm under 10 °C?
a: Condition not met

###

The entries below are paired with their reported Kd.
Target of assay: Nucleic Acid
Assay info: Binding affinity to human biotinylated telomeric HTG21 G-quadruplex DNA assessed as equilibrium dissociation constant by SPR assay
Enter the number, and then the unit.

Past entries and their recorded results:
CN(C)CCCNCC(=O)Nc1cc(Cl)ccc1-c1nc(NCCCN(C)C)c2ccccc2n1; 337 nM
CN(C)CCCNc1nc(-c2ccc(Cl)cc2NC(=O)CCCN2CCN(C)CC2)nc2ccccc12; 278 nM
CN(C)CCCNc1nc(-c2ccc(Cl)cc2NC(=O)CN2CCN(C)CC2)nc2ccccc12; 2110 nM

q: Quote Kd reported for CN(C)CCCNc1nc(-c2ccc(Cl)cc2NC(=O)CCN2CCN(C)CC2)nc2ccccc12 please.
a: 314 nM

###

Test system: Nucleic Acid
Assay info: Binding affinity to human fluorescent labeled oligonucleotide F21T telomeric G-quadruplex DNA assessed as change in melting temperature at 1 uM by FRET assay in presence of duplex DNA competitor ds26
Format: nucleic-acid assay
Active and inactive are the calls of the source. The rule behind the calls is not given here.
Result category, one only: Yes for active, No for inactive

q: What classification did CN(C)CCCNCC(=O)Nc1cc(Cl)ccc1-c1nc(NCCCN(C)C)c2ccccc2n1 end up with in this test?
a: Yes

q: Fill in: this test's call for CN(C)CCCNc1nc(-c2ccc(Cl)cc2NC(=O)CCCN2CCN(C)CC2)nc2ccccc12 is ___
a: Yes

q: Per the assay record, what outcome was assigned to CN(C)CCCNc1nc(-c2ccc(Cl)cc2NC(=O)CN2CCOCC2)nc2ccccc12 ?
a: Yes

q: Status in this test for CN(C)CCCNc1nc(-c2ccc(Cl)cc2NC(=O)CCN2CCN(C)CC2)nc2ccccc12 ?
a: Yes

q: Please let me know the test result on file for CN(C)CCCNc1nc(-c2ccc(Cl)cc2NC(=O)CCCN2CCOCC2)nc2ccccc12 .
a: Yes

###

Test system: Nucleic Acid
Assay info: Binding affinity to hairpin fluorescent labeled oligonucleotide F10T duplex DNA assessed as change in melting temperature at 1 uM after 30 secs by FRET assay
Parameter: ΔTm

Below are worked cases with known answers.
CCN(CC)CC(=O)Nc1cc(Cl)ccc1-c1nc(NCCCN(C)C)c2ccccc2n1; 0.1 °C
CN(C)CCCNc1nc(-c2ccc(Cl)cc2NC(=O)CCN2CCN(C)CC2)nc2ccccc12; 0.3 °C
CN(C)CCCNc1c2ccccc2nc2c1[nH]c1ccccc12; 5.5 °C

q: Give the reported ΔTm for this compound. CN(C)CCCNc1nc(-c2ccc(Cl)cc2NC(=O)CCCN2CCCCC2)nc2ccccc12
a: 0.2 °C

q: # return recorded ΔTm for input CN(C)CCCNc1nc(-c2ccc(Cl)cc2NC(=O)CCCN2CCOCC2)nc2ccccc12
a: 0.1 °C

q: Return ΔTm (reported value) for this compound: CCN(CC)CCC(=O)Nc1cc(Cl)ccc1-c1nc(NCCCN(C)C)c2ccccc2n1
a: 0.1 °C

###

Entries annotated with measured ΔTm
Test system: Nucleic Acid
Assay info: Binding affinity to human fluorescent labeled oligonucleotide F21T telomeric G-quadruplex DNA assessed as change in melting temperature at 1 uM after 30 secs by FRET assay
Type: nucleic-acid assay

CN(C)CCCNc1nc(-c2ccc(Cl)cc2NC(=O)CN2CCN(C)CC2)nc2ccccc12; 10.1 °C
CN(C)CCCNc1c2ccccc2nc2c1[nH]c1ccccc12; 9.9 °C
CCN(CC)CC(=O)Nc1cc(Cl)ccc1-c1nc(NCCCN(C)C)c2ccccc2n1; 4.5 °C
CCN(CC)CCCNCC(=O)Nc1cc(Cl)ccc1-c1nc(NCCCN(C)C)c2ccccc2n1; 12.3 °C
CN(C)CCCNc1nc(-c2ccc(Cl)cc2NC(=O)CCCN2CCCCC2)nc2ccccc12; 11.6 °C
CN(C)CCCNc1nc(-c2ccc(Cl)cc2NC(=O)CNCCN2CCCCC2)nc2ccccc12; 9.6 °C

Now for the compound whose ΔTm we want.
q: Read the entry CN(C)CCCNc1nc(-c2ccc(Cl)cc2NC(=O)CCCN2CCOCC2)nc2ccccc12 and write its reported ΔTm.
a: 9.8 °C

###

Test system: Nucleic Acid
Assay info: Binding affinity to human fluorescent labeled oligonucleotide F21T telomeric G-quadruplex DNA assessed as change in melting temperature at 1 uM by FRET assay in presence of duplex DNA competitor ds26
Format: nucleic-acid assay
The source made the active and inactive calls. The rule behind the calls is not given here.
Outcome (select one): y (active), n (inactive)

// known answers, use as guide
CN(C)CCCNc1c2ccccc2nc2c1[nH]c1ccccc12; n
CN(C)CCCNc1nc(-c2ccc(Cl)cc2NC(=O)CN2CCN(C)CC2)nc2ccccc12; y

q: # outcome recorded in this test, key = CN(C)CCCNc1nc(-c2ccc(Cl)cc2NC(=O)CCN2CCOCC2)nc2ccccc12
a: y
